Tested on: HEK-293T
Assay name: Multiplex assay against HEK293T
Assay type: toxicity, cell-based
Experimental parameters: human, 24 h, 1 µM, compound concentration 1 uM, replicate 1
Measured endpoint: Population Pyknosed Nuclei (%)

| Molecule | Measured endpoint | Measured result |
| --- | --- | --- |
| O=C(NCCNCC(O)COc1ccc(O)cc1)N1CCOCC1.O=C(NCCNCC(O)COc1ccc(O)cc1)N1CCOCC1.O=C(O)/C=C/C(=O)O (stereo not drawn) [XAMOTEROL FUMARATE] | Population Pyknosed Nuclei (%) | 12% |
| CN1CCC(C(=O)c2cccc(NC(=O)c3c(F)cc(F)cc3F)n2)CC1 | Population Pyknosed Nuclei (%) | 13% |
| CC(C)(C)c1ccc(CSc2cnn(C(C)(C)C)c(=O)c2Cl)cc1 | Population Pyknosed Nuclei (%) | 11% |
| COc1ccc2[nH]c(I)c(CCNC(C)=O)c2c1 | Population Pyknosed Nuclei (%) | 11% |
| COc1cc2nc(N3CCN(C(=O)c4ccco4)CC3)nc(N)c2cc1OC.Cl [PRAZOSIN HYDROCHLORIDE] | Population Pyknosed Nuclei (%) | 7% |
| COc1cc(Nc2ncc3c(n2)-c2ccc(Cl)cc2C(c2c(F)cccc2OC)=NC3)ccc1C(=O)O | Population Pyknosed Nuclei (%) | 7% |
| CN(C)C/C=C/C(=O)Nc1ccc(C(=O)N2CCCC(Nc3ncc(Cl)c(-c4c[nH]c5ccccc45)n3)C2)cc1 (stereo not drawn) | Population Pyknosed Nuclei (%) | 22% |
| O=c1nc2[nH]c3ccccc3nc-2c(=O)[nH]1 | Population Pyknosed Nuclei (%) | 12% |

---

System: U2OS
Assay name: Multiplex assay against U2OS
Format: toxicity, cell-based
Experimental parameters: human, 48 h, 10 µM, compound concentration 10 uM, replicate 2
Decide using Population Membrane Permeable-Phenotype (%): a value greater than or equal to 10% is Satisfied, a smaller one is Not satisfied.

| Molecule | Qualitative label |
| --- | --- |
| CC(C)C[C@H](CO)Nc1nc(S[C@@H](C)c2ccccc2)nc2nc(N)sc12 | Satisfied |
| Nc1nc(CC(=O)Nc2ccc(CCNC[C@H](O)c3ccccc3)cc2)cs1 | Not satisfied |
| O=C(Nc1cc(-c2ccccc2)nn1-c1ccccc1F)c1ccc([N+](=O)[O-])cc1 | Satisfied |
| C[C@@H]1CC(=O)Nc2cccc(-c3ccc4c(c3)c(-c3cnn(C)c3)nn4C)c2N1 | Not satisfied |
| CSc1nc(NC2CCCC2)c([N+](=O)[O-])c(NC2CCCC2)n1 | Not satisfied |
| COCCCN1CCC(NC(=O)c2cc(Cl)c(N)c3c2OCC3)CC1 [PRUCALOPRIDE] | Not satisfied |
| Cc1cc(=O)n(C)c2cc(N3C(=O)CC[C@H](NS(=O)(=O)CC(C)C)[C@H]3c3ccc(Cl)cc3)ccc12 | Satisfied |
| COc1cc(OC2CCN(C(C)=O)CC2)ccc1C(=O)N1CCC(N2C(=O)OCc3ccccc32)CC1 | Satisfied |
| COCCn1c(C)c(C)s/c1=N\C(=O)C1C(C)(C)C1(C)C | Not satisfied |
| CCCCC[C@H](O)/C=C/[C@H]1[C@H](O)CC(=O)[C@@H]1CCCCCCC(=O)O | Not satisfied |
| OCCCNc1cc(-c2ccnc(Nc3cccc(Cl)c3)n2)ccn1 | Satisfied |
| CN1CCN(c2ccc(Nc3c4ccccc4nc4ccccc34)cc2)CC1.Cl.Cl.O | Satisfied |
| Cc1cc(O)c(-c2ccc([C@@H](C)CN(C)C)cc2)c2c1[nH]c(=O)c1sccc12 | Satisfied |
| COc1ccc2[nH]c(I)c(CCNC(C)=O)c2c1 | Not satisfied |
| Cc1ccc(OCC(O)C(C)NC(C)C)c2c1CCC2.Cl (centres undefined) | Not satisfied |
| CN(C)C/C=C/C(=O)Nc1ccc(C(=O)N2CCCC(Nc3ncc(Cl)c(-c4c[nH]c5ccccc45)n3)C2)cc1 (centres undefined) | Satisfied |
| CC(C)(C)c1ccc(CSc2cnn(C(C)(C)C)c(=O)c2Cl)cc1 | Not satisfied |
| CN1CCC(C(=O)c2cccc(NC(=O)c3c(F)cc(F)cc3F)n2)CC1 | Satisfied |

---

Test system: Fibroblast
Assay name: Multiplex assay against human fibroblast
Type: toxicity, cell-based
Experimental parameters: 48 h, 1 µM, compound concentration 1 uM, replicate 1
Non-standard residues stand in square brackets, D forms with d. Residues, ends and D or L forms follow the SMILES beside them.
Short version: Population Healthy Nuclei (%) at least 60% is criterion met, less is criterion not met.

| Molecule | Tested system | Qualitative label |
| --- | --- | --- |
| COc1cc(OC2CCN(C(C)=O)CC2)ccc1C(=O)N1CCC(N2C(=O)OCc3ccccc32)CC1 | Fibroblast | criterion met |
| Nc1nc(-c2ccco2)c2cnn(Cc3ccccc3F)c2n1 | Fibroblast | criterion met |
| Cc1nn(C)c2nc(NNC(=O)Nc3cc(Cl)nc(Cl)c3)cc(C(C)C)c12 | Fibroblast | criterion met |
| COc1cc2nc(N3CCN(C(=O)COc4c(OC)cccc4C(C)C)CC3)nc(N)c2cc1OC.Cl.Cl | Fibroblast | criterion not met |
| OCCCNc1cc(-c2ccnc(Nc3cccc(Cl)c3)n2)ccn1 | Fibroblast | criterion not met |
| CCn1c(-c2nc3cc(C(=O)N4CCCC(N)C4)ccc3n2C)cc2ccccc21.Cl (stereo unspecified) | Fibroblast | criterion met |
| CC(F)(F)CN1CCOc2c(nn(-c3ccccc3Cl)c2-c2ccc(Cl)cc2)C1=O | Fibroblast | criterion met |
| Cc1cc(NC(=O)NCCN2CCC(O)(Cc3ccccc3)CC2)c2ccccc2n1 | Fibroblast | criterion met |
| CCCCCCNC(=O)Nc1ccc(S(=O)(=O)Nc2ccc(CCNC[C@H](O)COc3ccc(O)cc3)cc2)cc1 | Fibroblast | criterion met |
| CCC(=O)OCC(=O)[C@@]1(OC(=O)CC)[C@@H](C)C[C@H]2[C@@H]3CCC4=CC(=O)C=C[C@]4(C)[C@@]3(Cl)[C@@H](O)C[C@@]21C [BECLOMETHASONE DIPROPIONATE] | Fibroblast | criterion not met |
| O=c1nc2[nH]c3ccccc3nc-2c(=O)[nH]1 | Fibroblast | criterion met |
| CCCCC[C@H](O)/C=C/[C@H]1[C@H](O)CC(=O)[C@@H]1CCCCCCC(=O)O | Fibroblast | criterion met |
| COc1c(Nc2ccc(S(C)(=O)=O)nc2C)ncnc1OC1CCN(C(=O)OC(C)C)CC1 | Fibroblast | criterion met |
| COC(c1ccccc1)(c1ccccc1)[C@H](Oc1nc(C)cc(C)n1)C(=O)O | Fibroblast | criterion met |
| CN1CCC(C(=O)c2cccc(NC(=O)c3c(F)cc(F)cc3F)n2)CC1 | Fibroblast | criterion met |
| Cc1ccc(OCC(O)C(C)NC(C)C)c2c1CCC2.Cl (stereo unspecified) | Fibroblast | criterion met |
| O=C(NCCNCC(O)COc1ccc(O)cc1)N1CCOCC1.O=C(NCCNCC(O)COc1ccc(O)cc1)N1CCOCC1.O=C(O)/C=C/C(=O)O (stereo unspecified) [XAMOTEROL FUMARATE] | Fibroblast | criterion not met |
| COc1cc(Nc2ncc3c(n2)-c2ccc(Cl)cc2C(c2c(F)cccc2OC)=NC3)ccc1C(=O)O | Fibroblast | criterion met |
| O=C(Nc1cc(-c2ccccc2)nn1-c1ccccc1F)c1ccc([N+](=O)[O-])cc1 | Fibroblast | criterion met |
| C[C@H](NC(=O)CNC(=O)c1cccc(Cl)c1)c1ccccc1 | Fibroblast | criterion met |
| CC(C)C[C@@H]1NC(=O)[C@@H](C(C)C)NC(=O)[C@@H]2CCCN2C(=O)[C@@H](CC(=O)O)NC(=O)[C@@H](Cc2c[nH]c3ccccc23)NC1=O [BQ-123] (cyclo(L[dW][dD]P[dV])) | Fibroblast | criterion met |
| COCCn1c(C)c(C)s/c1=N\C(=O)C1C(C)(C)C1(C)C | Fibroblast | criterion met |
| Cc1cc(=O)n(C)c2cc(N3C(=O)CC[C@H](NS(=O)(=O)CC(C)C)[C@H]3c3ccc(Cl)cc3)ccc12 | Fibroblast | criterion not met |
| CN1CCN(c2ccc(Nc3c4ccccc4nc4ccccc34)cc2)CC1.Cl.Cl.O | Fibroblast | criterion met |
| Cn1cc(C(=O)OCC2CCN(CCNS(C)(=O)=O)CC2)c2ccccc21 | Fibroblast | criterion met |
| Cc1c(Cc2ccc3ccccc3n2)c2cc(F)ccc2n1CC(=O)O | Fibroblast | criterion met |
| S=C(NCCCc1c[nH]cn1)NCCCN(Cc1ccc(Cl)c(Cl)c1)c1ccc(Br)cn1 | Fibroblast | criterion met |
| CC(C)(C)c1ccc(CSc2cnn(C(C)(C)C)c(=O)c2Cl)cc1 | Fibroblast | criterion met |

---

As shown below, each of these compounds has a reported Population Membrane Permeable-Phenotype (%) value.
Tested on: U2OS
Assay name: Multiplex assay against U2OS
Assay type: toxicity, cell-based
Experimental parameters: human, 12 h, 10 µM, compound concentration 10 uM, replicate 2
Non-standard residues stand in square brackets, D forms with d. Residues, ends and D or L forms follow the SMILES beside them.
Measured endpoint: Population Membrane Permeable-Phenotype (%)

| Compound | Unit tag | Measured result |
| --- | --- | --- |
| COCCn1c(C)c(C)s/c1=N\C(=O)C1C(C)(C)C1(C)C | % | 9 |
| C[C@@H]1CC(=O)Nc2cccc(-c3ccc4c(c3)c(-c3cnn(C)c3)nn4C)c2N1 | % | 7 |
| Cc1nn(C)c2nc(NNC(=O)Nc3cc(Cl)nc(Cl)c3)cc(C(C)C)c12 | % | 57 |
| Cc1c(Cc2ccc3ccccc3n2)c2cc(F)ccc2n1CC(=O)O | % | 6 |
| Nc1nc(-c2ccco2)c2cnn(Cc3ccccc3F)c2n1 | % | 5 |
| O=C(O)CCC/C=C\CC1C(O)CC(O)C1/C=C/C(O)COc1cccc(Cl)c1 (configuration not stated) | % | 9 |
| O=c1ccc2ccc(OCCCCN3CCN(c4cccc5sccc45)CC3)cc2[nH]1 | % | 53 |
| Cc1cc(NC(=O)NCCN2CCC(O)(Cc3ccccc3)CC2)c2ccccc2n1 | % | 12 |
| COc1cc2nc(N3CCN(C(=O)COc4c(OC)cccc4C(C)C)CC3)nc(N)c2cc1OC.Cl.Cl | % | 54 |
| COCCCN1CCC(NC(=O)c2cc(Cl)c(N)c3c2OCC3)CC1 [PRUCALOPRIDE] | % | 1 |
| COc1cc(OC2CCN(C(C)=O)CC2)ccc1C(=O)N1CCC(N2C(=O)OCc3ccccc32)CC1 | % | 21 |
| Nc1nc(CC(=O)Nc2ccc(CCNC[C@H](O)c3ccccc3)cc2)cs1 | % | 7 |
| CCCCCCNC(=O)Nc1ccc(S(=O)(=O)Nc2ccc(CCNC[C@H](O)COc3ccc(O)cc3)cc2)cc1 | % | 19 |
| CN(C)C/C=C/C(=O)Nc1ccc(C(=O)N2CCCC(Nc3ncc(Cl)c(-c4c[nH]c5ccccc45)n3)C2)cc1 (configuration not stated) | % | 23 |
| CC(C)C[C@@H]1NC(=O)[C@@H](C(C)C)NC(=O)[C@@H]2CCCN2C(=O)[C@@H](CC(=O)O)NC(=O)[C@@H](Cc2c[nH]c3ccccc23)NC1=O [BQ-123] (cyclo(L[dW][dD]P[dV])) | % | 7 |
| Cc1cc(=O)n(C)c2cc(N3C(=O)CC[C@H](NS(=O)(=O)CC(C)C)[C@H]3c3ccc(Cl)cc3)ccc12 | % | 35 |
| Cc1sc2c(c1C)C(c1ccc(Cl)cc1)=N[C@H](CC(=O)OC(C)(C)C)c1nnc(C)n1-2 | % | 13 |
